Values were extracted from ChEMBL document CHEMBL1201862.

Entries and their measured GI50 follow.
Tested on: SK-MEL-28
Experiment: NCI tumour cell line growth inhibition, 48 h
Active and inactive are the calls of the source. No stated cut-off is given here; in the data, active = GI50 up to about 1.1 µM and inactive = higher.

| Smiles data | GI50 |
| --- | --- |
| Cc1cc(C)nc(NS(=O)(=O)c2ccc(NC(=O)COC(=O)c3cccc4c(=O)c5ccccc5[nH]c34)cc2)n1 | 31.7 µM (inactive) |
| COc1ccc(Nc2cc(O)nc(O)n2)cc1 | > 100 µM (inactive) |
| COc1ccc(-c2nc(Sc3c([N+](=O)[O-])ncn3C)n[nH]2)cc1 | 4.21 µM (inactive) |

# value of GI50, SK-MEL-28, item O=c1[nH]cc(/N=C/c2cc(Cl)ccc2O)c(=O)[nH]1 = 13.6 µM (inactive)

# value of GI50, SK-MEL-28, item COc1cc(Oc2c(C)c(Cl)c(OC)c(Cl)c2OC)c2c(c1Cl)COC2=O = 62.2 µM (inactive)

* * *

Test system: SF-295
Assay: NCI tumour cell line growth inhibition, 48 h
Activity calls are given as the source filed them. Cut-off read from the data, not from the text of the source: active = GI50 up to about 1.1 µM and inactive = higher.
Entries and their measured GI50 follow.

Sample records with GI50:
| Compound | GI50 |
| --- | --- |
| CC(=O)OC1C/C(C)=C/[C@H](O)CC(C)/C=C/[C@@]2(C)CCC(C(C)(C)O)C12 (stereo not given in full) | > 100 µM (inactive) |
| O=S1(=O)C[C@@H](O)[C@H](O)CS1 | > 100 µM (inactive) |
| COC(=O)C(=C\Sc1ccccc1)/C=C/C(=O)OC(C)(C)C | 17.4 µM (inactive) |
| O=C1c2ccccc2NC(=S)[C@@H]2CCCN12 | > 100 µM (inactive) |

Moving on to another compound below.
compound CCCCCCCCOc1ccc(/C=C/C2=[N+](CCO)CCO2)cc1 , GI50 observed: 3.96 µM (inactive)

* * *

Tested on: SK-MEL-2
Experiment: NCI tumour cell line growth inhibition, 48 h
The source made the active and inactive calls. Rule as the data show it: active = GI50 up to about 1.1 µM and inactive = higher.
Select the matching outcome among 1.0 (active), 0.0 (inactive)

Worked cases, answers included:
| Compound | Label value |
| --- | --- |
| N#Cc1c(-c2ccc([N+](=O)[O-])cc2)c2c([nH]c1=O)-c1ccccc1CCC2 | 0.0 |
| CCOC(=O)C1OC(C2(C)OC3(OC4(C=CC3O)OC(C(C)C(=O)C(C)C(O)C(C)CC(C)c3c(Cl)cc(C)c(O)c3C(=O)O)C(C)CC4C)C(C)C2OC)CC1O (centres undefined) | 1.0 |
| CC(C)(NO)/C(=N\O)c1ccccc1 | 0.0 |
| CC1(C)[C@@H]2CC[C@@]1(C)[C@@H]1O[C@@H](O[C@@H](CN)c3cc(Cl)c(OCc4ccccc4)c(OCc4ccccc4)c3)C[C@H]21 | 1.0 |
| O=c1[nH]c(=O)n(C2OC(CO)C(O)C2O)cc1OCCCc1ccccc1 (centres undefined) | 0.0 |
| CC(C)(C)c1cc2c3c(c1)C(C(F)(F)F)(C(F)(F)F)O[Te]3(C)OC2(C(F)(F)F)C(F)(F)F | 0.0 |

Give the logged outcome of this assay for the following compound: O=C1Nc2ccccc2S/C1=C\c1ccc(C(F)(F)F)cc1
0.0

Give the logged outcome of this assay for the following compound: N#COc1ccc(Oc2ccc(OC#N)cc2)cc1
0.0

Give the logged outcome of this assay for the following compound: Nc1ccc(CCSSCCc2ccc(N)cc2)cc1
0.0

* * *

System: UACC-257
Assay: NCI tumour cell line growth inhibition, 48 h
Activity calls are given as the source filed them. Rule as the data show it: active = GI50 up to about 1.1 µM and inactive = higher.
Entries and their measured GI50 follow.

Sample records with GI50:
| Compound | Value observed |
| --- | --- |
| N=c1nc(N)nc(N)n1-c1ccc(S(N)(=O)=O)cc1 | > 100 µM (inactive) |
| CNC(=O)c1cc(NC(=O)N(CCC#N)CCN(C(=O)N[C@@H](Cc2ccccc2)C(=O)N[C@@H](CC(C)C)C(=O)NC)c2ccccc2)ccc1OC | 19.5 µM (inactive) |
| CC1(C)CCCC(C)(C2CCC3(C)C2C(O)CC2C4(C)CCC(O)C(C)(C)C4CCC23C)O1 (centres undefined) | > 100 µM (inactive) |
| COc1cc(CNc2cnc3cc(N)ccc3n2)cc(OC)c1OC | > 100 µM (inactive) |
| CC(=O)O[C@@H]1[C@@H](O)C2=C3[C@]4(C)[C@@H]1C(C)(C)C(=O)C[C@@H]4[C@]3(O)[C@H](OC(C)=O)[C@@]1(C[C@@H]1C)C2=O | 13.9 µM (inactive) |

compound COCCNC1CCC2(SCCS2)c2[nH]c3ccccc3c21 (centres undefined) , GI50 observed: 18 µM (inactive)

compound Clc1ccc2c(c1)[nH]c1c2nc2ccccn21 , GI50 observed: 29.2 µM (inactive)

compound Cc1n[n+](CC(=O)c2ccccc2)c2sc(N)nn12 , GI50 observed: > 100 µM (inactive)

compound CC(=O)OC1C2CCC1C1C2N=NN1c1ccc([N+](=O)[O-])cc1 (centres undefined) , GI50 observed: > 100 µM (inactive)

* * *

Test system: COLO 205
Assay: NCI tumour cell line growth inhibition, 48 h
Calls of active or inactive are those of the source. Rule as the data show it: active = GI50 up to about 1.1 µM and inactive = higher.
Quantity kind: GI50

| Compound | GI50 |
| --- | --- |
| COC(=O)Cc1c(-c2c(CC(=O)OC)c3ccccc3n2C2OC(COC(C)=O)C(OC(C)=O)C(OC(C)=O)C2OC(C)=O)[nH]c2ccccc12 (centres undefined) | > 100 µM (inactive) |

Moving on to another compound below.
compound CC(=O)OC1CC[C@@]2(C)C(CC(OC3OC(CO)C(O)C(O)C3O)[C@]3(C)C2CCC24CC23CC[C@H]4C(C)CC(O)[C@@H](O)C(C)(C)O)C1(C)C (some centres undefined) , GI50 observed: 9.4 µM (inactive)

* * *

Tested on: UACC-62
Assay: NCI tumour cell line growth inhibition, 48 h
Active and inactive are the calls of the source. No stated cut-off is given here; in the data, active = GI50 up to about 1.1 µM and inactive = higher.
Entries and their measured GI50 follow.

| Compound | Target of assay | Value observed |
| --- | --- | --- |
| CCCC1C(C#N)(C#N)C(C#N)=C(N)C1(C)C(C)=O (stereo unspecified) | UACC-62 | > 100 µM (inactive) |
| COc1ccc(N2CN(C)CSC2=S)cc1 | UACC-62 | > 100 µM (inactive) |
| OC(c1cc(-c2ccc(Cl)cc2)nc2ccccc12)C1CCCCN1 (stereo unspecified) | UACC-62 | 1.82 µM (inactive) |
| CCCCCCCCCC1C(C)c2c([nH]c3ccccc23)C2C(=O)N(c3ccccc3)C(=O)C21 (stereo unspecified) | UACC-62 | 18.3 µM (inactive) |
| C#CCNC(=O)NC(CCCCNC(=O)OCc1ccccc1)C(=O)OCc1ccccc1 (stereo unspecified) | UACC-62 | 12.7 µM (inactive) |
| Nc1nc(-c2ccccc2)c(Cl)c(-c2cc(Cl)ccc2O)n1 | UACC-62 | 50.8 µM (inactive) |
| O=C1c2cccc(O)c2C(=O)c2cccc(O)c21 | UACC-62 | > 100 µM (inactive) |
| [O-][n+]1cn[n+]([O-])c2ccccc21 | UACC-62 | 16.3 µM (inactive) |
| CC(C)NC(=O)OCc1c2c(n(C)c1COC(=O)NC(C)C)-c1ccccc1CC2 | UACC-62 | 12.7 µM (inactive) |
| C#CCOCn1cnc2c(Sc3c([N+](=O)[O-])ncn3C)ncnc21 | UACC-62 | > 100 µM (inactive) |

compound Cc1nc(-c2ccccc2)c(-c2ccccc2)s1 , GI50 observed: 18 µM (inactive)

compound COc1cc(Oc2nc3cc(F)c(F)cc3nc2-c2ccccc2)cc(OC)c1OC , GI50 observed: 25.8 µM (inactive)

compound CCCCCCCCCCCCCCCCSS(C)(=O)=O , GI50 observed: 22.4 µM (inactive)

compound CN1CCN(C(=O)c2cn(Cc3cncn3Cc3ccc4c(c3)OCO4)cc2-c2cccc3ccccc23)CC1 , GI50 observed: 7.96 µM (inactive)

compound COc1cc(CNc2cnc3cc(N)ccc3n2)cc(OC)c1OC , GI50 observed: 12.7 µM (inactive)

compound N#Cc1ccc(C2NN=CC23C(=O)c2ccccc2OC3c2ccccc2)cc1 (stereo unspecified) , GI50 observed: 26.7 µM (inactive)

compound Oc1ccc(/C=C/c2cc(O)cc(O)c2)cc1 , GI50 observed: 41.2 µM (inactive)

compound Cc1ccsc1/C=N/NC1=NCCN1 , GI50 observed: > 100 µM (inactive)

compound COc1cc2ccc3c4cc(OC)c(OCc5ccccc5)cc4cnc3c2cc1OC , GI50 observed: > 100 µM (inactive)

compound COC(=O)C1(c2ccc(OC)cc2)NC(c2ccccc2)C2C(=O)N(c3ccc(OC)cc3)C(=O)C21 (stereo unspecified) , GI50 observed: > 100 µM (inactive)

compound c1ccc2cc(NCNc3ccc4ccccc4c3)ccc2c1 , GI50 observed: 14.7 µM (inactive)

compound Cc1c[n+]([O-])c2ccccc2[n+]1[O-] , GI50 observed: > 100 µM (inactive)

compound O=C(Cc1nc2ccc(C(=O)c3ccccc3)cc2nc1O)C(=O)Nc1ccc(C(F)(F)F)cc1[N+](=O)[O-] , GI50 observed: 38.9 µM (inactive)

compound Cc1ccc(S(=O)(=O)C2=C([Si](C)(C)C)C3CC2[C@@H]2C4C=CC(CC4)[C@H]32)cc1 (stereo partly specified) , GI50 observed: 60.5 µM (inactive)

compound NS(=O)(=O)C1CCCCC1C(=O)NNC(=O)C(=O)Nc1nnc(S)[nH]1 (stereo unspecified) , GI50 observed: > 100 µM (inactive)

compound Cc1cccc(NC2=NCCO2)c1Cl , GI50 observed: > 100 µM (inactive)

compound C=C1CC2(CC(c3ccccc3C)OC(c3ccccc3C)C2)OC1=O (stereo unspecified) , GI50 observed: 1.54 µM (inactive)
